System: human diploid fibroblasts (HCA cells)
METHOD SUMMARY: Inhibition of senescence of mammal cells: β-galactosidase staining of senescent cells
Assay type: cell-based
CONDITIONS: passage 25
MEASURED PARAMETER: Senescent cells (%) HCA25
Kindly provide the numeric value in % only, without the unit symbol.

Example compounds with recorded Senescent cells (%) HCA25:
COc1ccccc1CNc1ncnc2c1ncn2[C@@H]1O[C@H](CO)[C@@H](O)[C@H]1O [2-methoxybenzylamino, 6-(2-methoxybenzylamino)purine riboside] : 4
COc1cccc(CNc2ncnc3c2ncn3[C@@H]2O[C@H](CO)[C@@H](O)[C@H]2O)c1OC [2,3-dimethoxybenzylamino] : 4
OC[C@H]1O[C@@H](n2cnc3c(Nc4cccc(Cl)c4)ncnc32)[C@H](O)[C@@H]1O [3-chloroanilino] : 4

IN: Record request: Senescent cells (%) HCA25 value, item COc1cccc(CNc2ncnc3c2ncn3[C@@H]2O[C@H](CO)[C@@H](O)[C@H]2O)c1 [3-methoxybenzylamino, 6-(3-methoxybenzylamino)purine riboside]
OUT: 5

IN: Record request: Senescent cells (%) HCA25 value, item Nc1cc(CNc2ncnc3c2ncn3[C@@H]2O[C@H](CO)[C@@H](O)[C@H]2O)ccc1Cl [3-amino-4-chlorobenzylamino]
OUT: 4

IN: Record request: Senescent cells (%) HCA25 value, item c1coc(CNc2ncnc3[nH]cnc23)c1 [Kinetin, reference compound]
OUT: 3

IN: Record request: Senescent cells (%) HCA25 value, item OC[C@H]1O[C@@H](n2cnc3c(NCc4cccc(F)c4)ncnc32)[C@H](O)[C@@H]1O [3-fluorobenzylamino, 6-(3-fluorobenzylamino)purine riboside]
OUT: 3

IN: Record request: Senescent cells (%) HCA25 value, item OC[C@H]1O[C@@H](n2cnc3c(NCc4ccccc4F)ncnc32)[C@H](O)[C@@H]1O [2-fluorobenzylamino, 6-(2-fluorobenzylamino)purine riboside]
OUT: 4

# credit: patent US8119614B2
